EXPERIMENTAL DETAILS: UV-Vis absorption spectra in acetonitrile
Type: physicochemical
CONDITION SET: Absorption maxima in acetonitrile
Catalogue of λabs readings, one per entry.

# COMPOUND, λabs [nm]
records = [
    ("CCN(CC)c1ccc2c(c1)OC(=C(C#N)C#N)C=C2/C=C/c1ccccc1", 516),
    ("CCN(CC)c1ccc2c(c1)OC(=C(C#N)C#N)C=C2/C=C/c1ccc(OCCCCCC(=O)O)cc1", 519),
    ("CCN(CC)c1ccc2c(/C=C/c3ccc(N(C)C)cc3)cc(=[N+]3CCCCC3)oc2c1.O=[N+]([O-])[O-]", 485),
    ("CCN(CC)c1ccc2c(/C=C/c3ccc(OCCCCCC(=O)O)cc3)cc(=[N+]3CCCCC3)oc2c1.O=[N+]([O-])[O-]", 406),
    ("CCN(CC)c1ccc2c(/C=C/c3ccc(OC)cc3)cc(=[N+]3CCCCC3)oc2c1.O=[N+]([O-])[O-]", 410),
    ("CCN(CC)c1ccc2c(c1)OC(=C(C#N)C#N)C=C2C", 477),
    ("CCN(CC)c1ccc2c(/C=C/c3ccccc3)cc(=[N+]3CCCCC3)oc2c1.O=[N+]([O-])[O-]", 467),
    ("CCN(CC)c1ccc2c(C)cc(=O)oc2c1 [Compound 1, 7-diethylamino-4-methylcoumarin, reference compound]", 371),
]

###

EXPERIMENTAL DETAILS: UV-Vis absorption spectra in acetonitrile
Assay type: physicochemical
CONDITION SET: Molar extinction coefficient at longest wavelength transition (Table 5)
ε strictly under 30000 cm^-1m^-1 means Y; at 30000 cm^-1m^-1 or over means N.

# MOLECULE, QUALITATIVE LABEL
measured = [
    ("CCN(CC)c1ccc2c(/C=C/c3ccc(C(=O)OC)cc3)cc(=[N+]3CCCCC3)oc2c1.O=[N+]([O-])[O-]", "Y"),
    ("CCN(CC)c1ccc2c(C)cc(=[N+]3CCCCC3)oc2c1.O=[N+]([O-])[O-]", "Y"),
    ("CCN(CC)c1ccc2c(/C=C/c3ccc(N(C)C)cc3)cc(=[N+]3CCCCC3)oc2c1.O=[N+]([O-])[O-]", "N"),
    ("CCN(CC)c1ccc2c(C)cc(=O)oc2c1 [Compound 1, 7-diethylamino-4-methylcoumarin, reference compound]", "Y"),
    ("CCN(CC)c1ccc2c(/C=C/c3ccccc3)cc(=[N+]3CCCCC3)oc2c1.O=[N+]([O-])[O-]", "Y"),
]

###

Catalogue of ε readings, one per entry.
EXPERIMENTAL DETAILS: UV-Vis absorption spectra in acetonitrile
Type: physicochemical
CONDITION SET: Molar extinction coefficient at longest wavelength transition

# SMILES REPRESENTATION, ε / cm^-1M^-1
measured = [
    ("CCN(CC)c1ccc2c(c1)OC(=C(C#N)C#N)C=C2/C=C/c1ccccc1", 17000),
    ("CCN(CC)c1ccc2c(c1)OC(=C(C#N)C#N)C=C2/C=C/c1ccc(N(C)C)cc1", 34000),
    ("CCN(CC)c1ccc2c(c1)OC(=C(C#N)C#N)C=C2C", 38000),
]

###

EXPERIMENTAL DETAILS: Fluorescence emission spectra in acetonitrile
Type: physicochemical
CONDITION SET: Emission maxima in acetonitrile
ASSAY READOUT: λem (nm)

# COMPOUND, UNITS LABEL, MEASURED VALUE
records = [
    ("CCN(CC)c1ccc2c(/C=C/c3ccc(N(C)C)cc3)cc(=[N+]3CCCCC3)oc2c1.O=[N+]([O-])[O-]", "nm", 608),
    ("CCN(CC)c1ccc2c(c1)OC(=C(C#N)C#N)C=C2/C=C/c1ccccc1", "nm", 603),
    ("CCN(CC)c1ccc2c(c1)OC(=C(C#N)C#N)C=C2/C=C/c1ccc(N(C)C)cc1", "nm", 597),
    ("CCN(CC)c1ccc2c(C)cc(=[N+]3CCCCC3)oc2c1.O=[N+]([O-])[O-]", "nm", 490),
    ("CCN(CC)c1ccc2c(c1)OC(=C(C#N)C#N)C=C2/C=C/c1ccc(OCCCCCC(=O)ON2C(=O)CCC2=O)cc1", "nm", 597),
    ("CCN(CC)c1ccc2c(c1)OC(=C(C#N)C#N)C=C2/C=C/c1ccc(C(=O)OC)cc1", "nm", 620),
    ("CCN(CC)c1ccc2c(/C=C/c3ccc(C(=O)OC)cc3)cc(=[N+]3CCCCC3)oc2c1.O=[N+]([O-])[O-]", "nm", 609),
    ("CCN(CC)c1ccc2c(/C=C/c3ccc(OC)cc3)cc(=[N+]3CCCCC3)oc2c1.O=[N+]([O-])[O-]", "nm", 578),
    ("CCN(CC)c1ccc2c(c1)OC(=C(C#N)C#N)C=C2/C=C/c1ccc(OCCCCCC(=O)O)cc1", "nm", 596),
    ("CCN(CC)c1ccc2c(/C=C/c3ccccc3)cc(=[N+]3CCCCC3)oc2c1.O=[N+]([O-])[O-]", "nm", 525),
    ("CCN(CC)c1ccc2c(c1)OC(=C(C#N)C#N)C=C2/C=C/c1ccc(OC)cc1", "nm", 602),
    ("CCN(CC)c1ccc2c(/C=C/c3ccc(OCCCCCC(=O)O)cc3)cc(=[N+]3CCCCC3)oc2c1.O=[N+]([O-])[O-]", "nm", 578),
    ("CCN(CC)c1ccc2c(C)cc(=O)oc2c1 [Compound 1, 7-diethylamino-4-methylcoumarin, reference compound]", "nm", 434),
    ("CCN(CC)c1ccc2c(/C=C/c3ccc(OCCCCCC(=O)ON4C(=O)CCC4=O)cc3)cc(=[N+]3CCCCC3)oc2c1.O=[N+]([O-])[O-]", "nm", 577),
    ("CCN(CC)c1ccc2c(c1)OC(=C(C#N)C#N)C=C2C", "nm", 519),
]

###

EXPERIMENTAL DETAILS: UV-Vis absorption spectra in acetonitrile
Type: physicochemical
CONDITION SET: Absorption maxima in acetonitrile

# SMILES REPRESENTATION, λabs [nm]
measured = [
    ("CCN(CC)c1ccc2c(c1)OC(=C(C#N)C#N)C=C2/C=C/c1ccc(N(C)C)cc1", 496),
    ("CCN(CC)c1ccc2c(c1)OC(=C(C#N)C#N)C=C2/C=C/c1ccc(C(=O)OC)cc1", 520),
    ("CCN(CC)c1ccc2c(/C=C/c3ccc(C(=O)OC)cc3)cc(=[N+]3CCCCC3)oc2c1.O=[N+]([O-])[O-]", 484),
    ("CCN(CC)c1ccc2c(/C=C/c3ccc(OCCCCCC(=O)ON4C(=O)CCC4=O)cc3)cc(=[N+]3CCCCC3)oc2c1.O=[N+]([O-])[O-]", 404),
    ("CCN(CC)c1ccc2c(C)cc(=[N+]3CCCCC3)oc2c1.O=[N+]([O-])[O-]", 437),
    ("CCN(CC)c1ccc2c(c1)OC(=C(C#N)C#N)C=C2/C=C/c1ccc(OC)cc1", 522),
    ("CCN(CC)c1ccc2c(c1)OC(=C(C#N)C#N)C=C2/C=C/c1ccc(OCCCCCC(=O)ON2C(=O)CCC2=O)cc1", 523),
]

###

EXPERIMENTAL DETAILS: Fluorescence quantum yield in ethanol against 7-diethylamino-4-methylcoumarin as standard
Assay type: physicochemical
CONDITION SET: Fluorescence quantum yield in ethanol; standard 7-diethylamino-4-methylcoumarin (ΦF = 0.73 in ethanol)
# cutoff 0.3 applies to ΦF; >= gives fulfilled, < gives not fulfilled

# MOLECULE, QUALITATIVE LABEL
data = [
    ("CCN(CC)c1ccc2c(c1)OC(=C(C#N)C#N)C=C2/C=C/c1ccc(OC)cc1", "not fulfilled"),
    ("CCN(CC)c1ccc2c(C)cc(=[N+]3CCCCC3)oc2c1.O=[N+]([O-])[O-]", "not fulfilled"),
    ("CCN(CC)c1ccc2c(/C=C/c3ccc(OCCCCCC(=O)ON4C(=O)CCC4=O)cc3)cc(=[N+]3CCCCC3)oc2c1.O=[N+]([O-])[O-]", "fulfilled"),
    ("CCN(CC)c1ccc2c(/C=C/c3ccc(C(=O)OC)cc3)cc(=[N+]3CCCCC3)oc2c1.O=[N+]([O-])[O-]", "not fulfilled"),
    ("CCN(CC)c1ccc2c(c1)OC(=C(C#N)C#N)C=C2/C=C/c1ccc(OCCCCCC(=O)ON2C(=O)CCC2=O)cc1", "not fulfilled"),
    ("CCN(CC)c1ccc2c(c1)OC(=C(C#N)C#N)C=C2C", "not fulfilled"),
    ("CCN(CC)c1ccc2c(C)cc(=O)oc2c1 [Compound 1, 7-diethylamino-4-methylcoumarin, reference compound]", "fulfilled"),
    ("CCN(CC)c1ccc2c(c1)OC(=C(C#N)C#N)C=C2/C=C/c1ccc(OCCCCCC(=O)O)cc1", "not fulfilled"),
    ("CCN(CC)c1ccc2c(/C=C/c3ccc(OCCCCCC(=O)O)cc3)cc(=[N+]3CCCCC3)oc2c1.O=[N+]([O-])[O-]", "fulfilled"),
    ("CCN(CC)c1ccc2c(/C=C/c3ccccc3)cc(=[N+]3CCCCC3)oc2c1.O=[N+]([O-])[O-]", "fulfilled"),
    ("CCN(CC)c1ccc2c(c1)OC(=C(C#N)C#N)C=C2/C=C/c1ccccc1", "not fulfilled"),
]
